- STUDY_SYSTEM: AHR (Mus musculus, UniProt P30561)
- Sequence (P30561 whole entry P471L/N533S/M589L, form open): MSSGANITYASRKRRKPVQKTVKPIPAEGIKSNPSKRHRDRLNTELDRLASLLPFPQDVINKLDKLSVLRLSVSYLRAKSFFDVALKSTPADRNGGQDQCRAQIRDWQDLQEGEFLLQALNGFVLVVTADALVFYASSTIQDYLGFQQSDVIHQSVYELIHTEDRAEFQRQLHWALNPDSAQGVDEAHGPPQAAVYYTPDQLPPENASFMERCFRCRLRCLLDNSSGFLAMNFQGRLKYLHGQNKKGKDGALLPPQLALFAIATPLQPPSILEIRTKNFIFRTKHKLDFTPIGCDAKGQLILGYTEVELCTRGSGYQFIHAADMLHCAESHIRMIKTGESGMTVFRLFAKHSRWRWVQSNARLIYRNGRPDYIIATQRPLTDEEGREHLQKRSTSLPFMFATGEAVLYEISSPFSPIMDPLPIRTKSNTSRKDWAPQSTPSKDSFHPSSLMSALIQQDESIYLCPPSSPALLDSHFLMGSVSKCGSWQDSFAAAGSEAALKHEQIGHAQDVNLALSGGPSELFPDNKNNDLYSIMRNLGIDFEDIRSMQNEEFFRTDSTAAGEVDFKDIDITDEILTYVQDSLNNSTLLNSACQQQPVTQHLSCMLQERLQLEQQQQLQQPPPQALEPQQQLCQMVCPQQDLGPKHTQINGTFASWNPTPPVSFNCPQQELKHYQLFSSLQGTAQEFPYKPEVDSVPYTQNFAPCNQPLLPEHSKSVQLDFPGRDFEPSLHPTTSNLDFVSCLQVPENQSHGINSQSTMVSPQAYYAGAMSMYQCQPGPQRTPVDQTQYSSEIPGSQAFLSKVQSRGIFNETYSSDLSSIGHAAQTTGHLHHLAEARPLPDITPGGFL
- ASSAY_OVERVIEW: In vitro assay 3: antagonism in mouse cell line (AHR transactivation, firefly luciferase reporter, kynurenic acid prestimulated)
- Assay type: cell-based
- TEST_CONTEXT: mouse Hepa 1c1c7 cells, 200 μM kynurenic acid, 20 hours, read-out: AHR Antagonism Mouse IC50
pIC50: −log10 of the molar value.
MEASUREMENT_NAME: pIC50

COc1cccc(-c2nc3c4ccccc4nc(N[C@@H](C)C(N)=O)n3n2)c1 (single isomer, unassigned) [Example 86] : 8.25
O=C1NCC[C@H]1Nc1nc2ccccc2c2nc(-c3cc(C(F)(F)F)cc(C(F)(F)F)c3)nn12 : 5.26
Cc1cc(-c2nc3c4ccccc4nc(N[C@H]4CCCCNC4=O)n3n2)cs1 : 7.56
N#Cc1ccc(-c2nc3c4ccccc4nc(N[C@@H]4CCCNC4=O)n3n2)cc1 : 7.57
Cn1cc(-c2nc3c4c(C(F)(F)F)cccc4nc(N[C@@H]4CNCCNC4=O)n3n2)cn1 : 5.47

A = N#Cc1ccc(-c2nc3c4ccccc4nc(N[C@@H]4CNCCNC4=O)n3n2)cc1
B = N#Cc1cccc2c1nc(N[C@@H]1CCCCNC1=O)n1nc(-c3ccc(F)cc3)nc21
Input line: Response body: label of entry with the larger pIC50; valid values A , B . Kindly state the label of the option you pick.
Output line: A

P = N#Cc1ccc(-c2nc3c4cccc(Br)c4nc(N[C@@H]4CCCNC4=O)n3n2)cc1
Q = COc1cccc(-c2nc3c4ccccc4nc(N[C@H](CC(C)C)C(N)=O)n3n2)c1
Input line: Of P and Q , which shows the smaller pIC50 value? Kindly state the label of the option you pick.
Output line: Q
(Q: 7.89, P: 8.25)

1 = COc1ccc(-c2nc3c4cccc(C)c4nc(N[C@@H]4CCCCNC4=O)n3n2)cc1
2 = O=C1NCCNCC1Nc1nc2cccc(Br)c2c2nc(-c3cccc(F)c3)nn12 (centres unmarked)
Input line: Of 1 and 2 , which shows the smaller pIC50 value? Kindly state the label of the option you pick.
Output line: 2

P = Cn1cc(-c2nc3c4ccccc4nc(N[C@@H]4CCCCNC4=O)n3n2)cn1
Q = COc1ccc(-c2nc3c4cccc(Br)c4nc(N[C@H]4CCCCNC4=O)n3n2)c(C(F)(F)F)c1
Input line: Response body: label of entry with the larger pIC50; valid values P , Q . Kindly state the label of the option you pick.
Output line: P
